# Tested on: indicated HLA alleles
# measurement-protocol: Stability of GATA3 neoORF neoepitopes with the HLA alleles (Example 9, Table 4)
# Format: binding, human
# setup-conditions: Allele A02.01
Where no end group is shown, it is not given here.
sequences and their reported Observed MHC stability
Could you give me the number in h? Just the number is fine.

VLPEPHLAL [VLPEPHLAL] ... 1.1
ALQPLQPHA ... 1.5
TLQRSSLWCL ... 0.5

Enquiry: Give a short answer stating reported Observed MHC stability for AIQPVLWTT .
Return: 1.5

----------
# setup-conditions: 0.4 mg/mL in […] SS, without DMSO, after 6 hours
Where no end group is shown, it is not given here.
readout-label: solubility

KAESKIMFATLQRSSLWCL [Peptide L11d] ... soluble
GPPARVPAVPFDLHFCRSSIMKPKRD [Peptide L8] ... soluble
LHFCRSSIMKPKRDGYMFLKAESKI [Peptide L9] ... soluble
FLKAESKIMFATLQRS [Peptide L11f] ... soluble

Enquiry: Give a short answer stating reported solubility for KPKRDGYMFLKAESKI [Peptide L10c] .
Return: soluble

Origin of measurements: patent US20210275657A1
